Target: AgSla1-D1-D2
Experiment: SPOT peptide array binding signal intensity (averaged, normalized) (arbitrary units (background-subtracted, floor 0; scale differs between SH3 domains)); higher = stronger binding of the SH3 domain to the peptide
# SPOT peptide array binding signal intensity annotations
Lab note: jot down the number only; don't add units.

Example cases with answers are listed next.
binder: LRIKRKPVQTFFEFI
value: 432
--
binder: LSKRLPLRFPEHTSS
value: 2

Turning now to a further binder:
Qu. Query (binder): RKRRTHLRLPLIRSN ; field requested: SPOT peptide array binding signal intensity
Ans. 29.5
